Tested on: 786-0 renal
assay: NCI-60 one-dose screen, 48 h (100 = growth as untreated, 0 = no growth, -100 = all killed)
assay.context: 10 µM unless noted
Compounds without any hit were thinned out: in the full panel of roughly 83,000, 20% have a hit.
measurement.name: growth (%)
Record the value in %, omitting the unit from your answer.

Measured growth, CC(=O)c1c([Si](C)(C)C)c2cc(C#N)ccn2c1C(=O)c1ccc(Br)cc1 : 76.5

Measured growth, COc1ccc(C2C(C#N)=C(/N=C/c3ccc(Cl)cc3)Oc3c2sc2c(C)cccc32)cc1 (configuration not stated) : 39.2

Measured growth, CC[C@]12CC(C(=O)OC)=C3Nc4ccccc4[C@@]34CCN(C14)[C@@H]1c3cc4c(cc3O[C@@H]1[C@H]2O)NC1=C(C(=O)OC)C[C@@]2(CC)C3N(CC[C@@]143)C[C@H]1O[C@H]12 (some centres not stated) : 23.2

Measured growth, CC1(C)CC[C@]23CC[C@]4(C)[C@H](CC[C@@H]5[C@@]6(C)CC[C@H](NCO)C(C)(C)[C@@H]6CC[C@]54C)[C@H]2[C@H]1OC3 : 64.3

Measured growth, COc1cc(NC(=O)Nc2cccc(-c3cc(=O)c4c(OC)c(OC)c(OC)cc4o3)c2)cc(OC)c1OC : 35.3

Measured growth, CCCc1cc2cc(-n3nc(CC)c4c3CC(C)(C)CC4=O)cc(NC3CCC(O)CC3)c2c(=O)[nH]1 (configuration not stated) : -12.4

Measured growth, C#C[C@]1(O)CC[C@H]2[C@@H]3CC=C4c5sc(NCc6ccccc6)nc5CC[C@]4(C)[C@H]3CC[C@@]21C : -72.3
